- system name: HLA-A*1101 (human)
- method: competition with 125I-labelled standard peptide for purified HLA, gel filtration
parameter measured: binding affinity ratio (IC50 of standard peptide / IC50 of test peptide)
Answer with a number only.

Req: Returns the measured binding affinity ratio (IC50 of standard peptide / IC50 of test peptide) for the input binder. Input: WSPCSVTCGK (modifications not checked)
Resp: 0.0002

Req: Returns the measured binding affinity ratio (IC50 of standard peptide / IC50 of test peptide) for the input binder. Input: QVRKHLNDR (modifications not checked)
Resp: 0.0002

Req: Returns the measured binding affinity ratio (IC50 of standard peptide / IC50 of test peptide) for the input binder. Input: SVTCGKGTR (modifications not checked)
Resp: 0.0009

Req: Returns the measured binding affinity ratio (IC50 of standard peptide / IC50 of test peptide) for the input binder. Input: SIQDSLKESR (modifications not checked)
Resp: 0.0009

Req: Returns the measured binding affinity ratio (IC50 of standard peptide / IC50 of test peptide) for the input binder. Input: QSQDNNGNR (modifications not checked)
Resp: 0.0002

Req: Returns the measured binding affinity ratio (IC50 of standard peptide / IC50 of test peptide) for the input binder. Input: PSPNPEEGK (modifications not checked)
Resp: 0.0002

Req: Returns the measured binding affinity ratio (IC50 of standard peptide / IC50 of test peptide) for the input binder. Input: YADSAWENVK (modifications not checked)
Resp: 0.0002
